Molecular target: T1, R47E PTP1B catalytic domain (amino acids 1-321) (human) (UniProt P18031)
T1 sequence: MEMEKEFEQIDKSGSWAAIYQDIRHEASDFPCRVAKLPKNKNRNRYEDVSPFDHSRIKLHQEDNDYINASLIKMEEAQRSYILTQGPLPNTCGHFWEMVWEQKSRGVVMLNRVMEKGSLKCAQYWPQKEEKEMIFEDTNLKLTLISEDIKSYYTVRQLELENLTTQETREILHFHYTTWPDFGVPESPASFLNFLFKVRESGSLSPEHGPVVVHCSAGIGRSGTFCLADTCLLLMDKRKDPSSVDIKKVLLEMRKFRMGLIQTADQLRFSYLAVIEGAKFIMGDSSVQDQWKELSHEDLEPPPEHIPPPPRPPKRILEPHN
Square brackets hold non-standard residues; d marks the D form. pY = N[C@@H](Cc1ccc(OP(=O)(O)O)cc1)C(=O)O
Entries and their KM, steady-state dephosphorylation of the pY peptide
Measured parameter: KM, steady-state dephosphorylation of the pY peptide (µM)

>  <Binder>
Ac-AA[pY]AAADD-NH2 (SMILES CC(=O)N[C@@H](C)C(=O)N[C@@H](C)C(=O)N[C@@H](Cc1ccc(OP(=O)(O)O)cc1)C(=O)N[C@@H](C)C(=O)N[C@@H](C)C(=O)N[C@@H](C)C(=O)N[C@@H](CC(=O)O)C(=O)N[C@@H](CC(=O)O)C(N)=O) [Ac-AApYAAADD-NH2]

>  <Readout number>
10

$$$$
>  <Binder>
Ac-AA[pY]DDIDE-NH2 (SMILES CC[C@H](C)[C@H](NC(=O)[C@H](CC(=O)O)NC(=O)[C@H](CC(=O)O)NC(=O)[C@H](Cc1ccc(OP(=O)(O)O)cc1)NC(=O)[C@H](C)NC(=O)[C@H](C)NC(C)=O)C(=O)N[C@@H](CC(=O)O)C(=O)N[C@@H](CCC(=O)O)C(N)=O) [Ac-AApYDDIDE-NH2]

>  <Readout number>
56

$$$$
>  <Binder>
Ac-DPRGI[pY]DQVAG-NH2 (SMILES CC[C@H](C)[C@H](NC(=O)CNC(=O)[C@H](CCCNC(=N)N)NC(=O)[C@@H]1CCCN1C(=O)[C@H](CC(=O)O)NC(C)=O)C(=O)N[C@@H](Cc1ccc(OP(=O)(O)O)cc1)C(=O)N[C@@H](CC(=O)O)C(=O)N[C@@H](CCC(N)=O)C(=O)N[C@H](C(=O)N[C@@H](C)C(=O)NCC(N)=O)C(C)C) [nephrin pY1217 peptide Ac-DPRGIpYDQVAG-NH2]

>  <Readout number>
23

$$$$
>  <Binder>
Ac-EEDNAW[pY]AA-NH2 (SMILES CC(=O)N[C@@H](CCC(=O)O)C(=O)N[C@@H](CCC(=O)O)C(=O)N[C@@H](CC(=O)O)C(=O)N[C@@H](CC(N)=O)C(=O)N[C@@H](C)C(=O)N[C@@H](Cc1c[nH]c2ccccc12)C(=O)N[C@@H](Cc1ccc(OP(=O)(O)O)cc1)C(=O)N[C@@H](C)C(=O)N[C@@H](C)C(N)=O) [Ac-EEDNAWpYAA-NH2]

>  <Readout number>
9.5

$$$$
